B1: Formin-binding protein 4, residues 200 to 261; numbered along this chain, Q8N3X1 (parent)
chain: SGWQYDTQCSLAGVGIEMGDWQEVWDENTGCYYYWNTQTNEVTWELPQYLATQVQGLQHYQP

Variants of: B1
Assay Name: abundance fitness (aPCA) (normalised: wild type 0, dead -1); higher = more abundant; growth selection in yeast, the domain comes from the species named
Condition Set: Homo sapiens
Measured abundance fitness, listed per entry.
Would you mind answering with just the numeric figure?

sequence_data="SGWQYDTQCSLAGVGIEMGDWQEVWDENTHCYYYWNTQTNEVTWELPQYLATQVQGLQHYQP [G30H]" experimental_readout="abundance fitness" measured=-0.718
sequence_data="SGWQYDTQCSLAGVGIEMGDWQRVWDENTGCYYYWNTQTNEVTWELPQYLATQVQGLQHYQP [E23R]" experimental_readout="abundance fitness" measured=-0.59
sequence_data="SGWQYDTQCSLAGVGIEMGDWQEVWDENTGCYYYWYTQTNEVTWELPQYLATQVQGLQHYQP [N36Y]" experimental_readout="abundance fitness" measured=-0.961
sequence_data="SGWQYDTQCSLAGVGIEMGDWQEVWDENTGCYYYWNTQTNEVTWELPQYLATQVQGLQHGQP [Y60G]" experimental_readout="abundance fitness" measured=0.103
sequence_data="SGWQYDTQCSLAGVGIEMGDWQEVYDENTGCYYYWNTQTNEVTWELPQYLATQVQGLQHYQP [W25Y]" experimental_readout="abundance fitness" measured=-0.209

Task: For SGWQYDTLCSLAGVGIEMGDWQEVWDENTGCYYYWNTQTNEVTWELPQYLATQVQGLQHYQP [Q8L] , what is its reported abundance fitness?
Output: -0.369

Task: Field entry: SGWQYDTQCSLAGVSIEMGDWQEVWDENTGCYYYWNTQTNEVTWELPQYLATQVQGLQHYQP [G15S]
Output: -0.11

Task: Field entry: SGWQYDTQCSLAGVGIEMGDWQEVWDENTGCYYYWNTGTNEVTWELPQYLATQVQGLQHYQP [Q38G]
Output: -0.077

Task: Field entry: SGWQYDTQCSLAGVGIEMGDHQEVWDENTGCYYYWNTQTNEVTWELPQYLATQVQGLQHYQP [W21H]
Output: -0.297

Task: Field entry: SGWQYFTQCSLAGVGIEMGDWQEVWDENTGCYYYWNTQTNEVTWELPQYLATQVQGLQHYQP [D6F]
Output: -0.492

Task: Field entry: SGWQYDTQCSLAGVGIEMGDWQEVWDEMTGCYYYWNTQTNEVTWELPQYLATQVQGLQHYQP [N28M]
Output: -0.32

Task: Field entry: SGWQYDTQCSLAGVGIEMGDWQEVWDENTGCYYYWNTDTNEVTWELPQYLATQVQGLQHYQP [Q38D]
Output: 0.247

Task: Field entry: SGWQYDTQCSLAGVGIEMGDWQEVWDENTGCYYYWNTQENEVTWELPQYLATQVQGLQHYQP [T39E]
Output: -0.37

Task: Field entry: SGWQYDTQCSLAGVGIEMGDWQEVWDENTGCYYYWNGQTNEVTWELPQYLATQVQGLQHYQP [T37G]
Output: -0.135

Task: Field entry: SGWQYDTQCSLAGVGIEMGDWQEVWDENTGCYYYANTQTNEVTWELPQYLATQVQGLQHYQP [W35A]
Output: 0.196

Task: Field entry: SGWQYDTQCSLAGVGIEMGDWQEVWDENTGCYYYWNTQTNEVTWELPQYLANQVQGLQHYQP [T52N]
Output: -0.028

Task: Field entry: SGWQYDTQCSLAGVGIEMGDWQEVWDENTGCYYYWNTQTNEVTRELPQYLATQVQGLQHYQP [W44R]
Output: 0.03

Task: Field entry: SGWQYDTQCSLAGVGIEMGDWQEVWDENTGCYYYWNTQTNEVTWELPQYLATQVQGLQHVQP [Y60V]
Output: 0.099

Task: Field entry: SGWQYDTQCSLAGVGIEMGDWQEVWDENTGCYYYWNTQTNVVTWELPQYLATQVQGLQHYQP [E41V]
Output: -0.323
